experimentalProtocol: self-splicing fitness, log relative to wild type (ln ratio); higher = more splicing; Tetrahymena group I intron in knt gene, E. coli kanamycin selection, DiMSum; sequences stand for … in CUCUCU…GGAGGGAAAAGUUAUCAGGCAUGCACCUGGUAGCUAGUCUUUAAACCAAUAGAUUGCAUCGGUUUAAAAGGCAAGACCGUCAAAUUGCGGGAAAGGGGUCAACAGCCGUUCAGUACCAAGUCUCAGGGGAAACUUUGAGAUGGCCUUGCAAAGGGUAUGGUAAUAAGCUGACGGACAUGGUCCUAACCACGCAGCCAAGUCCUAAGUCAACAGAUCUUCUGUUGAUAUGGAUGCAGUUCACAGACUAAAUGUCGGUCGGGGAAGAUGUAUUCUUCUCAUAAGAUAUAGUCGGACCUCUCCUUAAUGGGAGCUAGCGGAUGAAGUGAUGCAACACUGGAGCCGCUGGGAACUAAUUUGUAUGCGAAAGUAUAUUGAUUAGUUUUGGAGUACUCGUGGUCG;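 further: selection with 25 µg/mL kanamycin versus none on LB agar overnight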
testContext: 30 °C
measurementName: self-splicing fitness (ln)

- itemSequence: "AGCUAGCAAUAUUACGCCAA"
  value: -1.7
- itemSequence: "UAAUAGCAAUAUUACGUGCC"
  value: -3.27
- itemSequence: "GGCUAGCAAUAUUACGCGGA"
  value: -0.936
- itemSequence: "AAUCAGCAAUAUUACGGGUU"
  value: -2.48
- itemSequence: "GCCAAGCAAUAUUACGACGU"
  value: -0.238
- itemSequence: "AUCGAGCAAUAUUACGGCGG"
  value: -2.61
- itemSequence: "UUCCAGCAAUAUUACGUUGG"
  value: -3.19
- itemSequence: "CCGUAGCAAUAUUACGUUCC"
  value: -3.11
- itemSequence: "GAAUAGCAAUAUUACGCCCG"
  value: -1.28
- itemSequence: "GCAUAGCAAUAUUACGUGCC"
  value: -3.42
- itemSequence: "CGGGAGCAAUAUUACGUACG"
  value: -2.98
- itemSequence: "GGAAAGCAAUAUUACGUUGC"
  value: -4.27
- itemSequence: "GGCUAGCAAUAUUACGAAGA"
  value: -2.05

----------
experimentalProtocol: self-splicing fitness, log relative to wild type (ln ratio); higher = more splicing; Tetrahymena group I intron in knt gene, E. coli kanamycin selection, DiMSum; sequences stand for … in CUCUCU…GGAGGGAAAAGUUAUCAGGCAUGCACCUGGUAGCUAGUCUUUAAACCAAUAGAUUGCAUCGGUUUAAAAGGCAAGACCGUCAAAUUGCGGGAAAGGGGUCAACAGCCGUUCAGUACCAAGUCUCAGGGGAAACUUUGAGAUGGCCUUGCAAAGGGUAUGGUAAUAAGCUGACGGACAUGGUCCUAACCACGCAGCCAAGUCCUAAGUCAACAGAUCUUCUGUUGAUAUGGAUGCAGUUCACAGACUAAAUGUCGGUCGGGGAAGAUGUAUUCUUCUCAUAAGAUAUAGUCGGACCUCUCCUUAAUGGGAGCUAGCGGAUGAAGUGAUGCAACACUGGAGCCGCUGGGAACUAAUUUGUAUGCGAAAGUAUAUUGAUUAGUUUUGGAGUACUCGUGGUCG
testContext: 30 °C

- itemSequence: "GGGCAGCAAUAUUACGCGUA"
  self-splicing fitness (ln): -0.501
- itemSequence: "GGCUAGCAAUAUUACGUCAG"
  self-splicing fitness (ln): -2.81
- itemSequence: "GGCUAGCAAUAUUACGUACU"
  self-splicing fitness (ln): -0.354
- itemSequence: "AACAAGCAAUAUUACGUCUG"
  self-splicing fitness (ln): -1.22
- itemSequence: "CGUAAGCAAUAUUACGCCGU"
  self-splicing fitness (ln): -3.89
- itemSequence: "GGUCAGCAAUAUUACGAUGC"
  self-splicing fitness (ln): -0.354
- itemSequence: "CCAUAGCAAUAUUACGUAUU"
  self-splicing fitness (ln): -3.88

----------
experimentalProtocol: self-splicing fitness, log relative to wild type (ln ratio); higher = more splicing; Tetrahymena group I intron in knt gene, E. coli kanamycin selection, DiMSum; sequences stand for … in CUCUCU…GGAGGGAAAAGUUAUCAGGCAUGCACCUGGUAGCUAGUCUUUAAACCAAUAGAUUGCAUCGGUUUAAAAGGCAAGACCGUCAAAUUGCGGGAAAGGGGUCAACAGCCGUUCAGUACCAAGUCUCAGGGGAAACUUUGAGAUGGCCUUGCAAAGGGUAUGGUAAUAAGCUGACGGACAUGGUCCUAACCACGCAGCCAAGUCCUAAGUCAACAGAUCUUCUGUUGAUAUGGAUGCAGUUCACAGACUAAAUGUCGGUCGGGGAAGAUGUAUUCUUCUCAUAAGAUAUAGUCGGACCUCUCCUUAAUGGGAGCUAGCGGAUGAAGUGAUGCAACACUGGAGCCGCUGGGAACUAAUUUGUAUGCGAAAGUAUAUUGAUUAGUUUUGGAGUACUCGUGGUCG
testContext: 30 °C
Please mark condition met if the recorded self-splicing fitness (ln) is equal to or greater than -3, and condition not met if it falls below.

- itemSequence: "GAGAAGCAAUAUUACGAUAA"
  className: "condition met"
- itemSequence: "UUUGAGCAAUAUUACGGCAG"
  className: "condition met"
- itemSequence: "ACCAAGCAAUAUUACGACUC"
  className: "condition met"
- itemSequence: "GUCGAGCAAUAUUACGUAUC"
  className: "condition met"
- itemSequence: "ACCCAGCAAUAUUACGUACG"
  className: "condition met"
- itemSequence: "CCACAGCAAUAUUACGUUAU"
  className: "condition not met"
- itemSequence: "CGGUAGCAAUAUUACGGGGA"
  className: "condition met"
- itemSequence: "UUUCAGCAAUAUUACGUCAC"
  className: "condition not met"
- itemSequence: "CUCUAGCAAUAUUACGUAUA"
  className: "condition met"
- itemSequence: "UAUCAGCAAUAUUACGAUAA"
  className: "condition met"
- itemSequence: "AACAAGCAAUAUUACGCUGC"
  className: "condition not met"
- itemSequence: "CCUCAGCAAUAUUACGCCAA"
  className: "condition met"

----------
Recorded self-splicing fitness (ln) values for a group of sequences are listed next.
experimentalProtocol: self-splicing fitness, log relative to wild type (ln ratio); higher = more splicing; Tetrahymena group I intron in knt gene, E. coli kanamycin selection, DiMSum; sequences stand for … in CUCUCU…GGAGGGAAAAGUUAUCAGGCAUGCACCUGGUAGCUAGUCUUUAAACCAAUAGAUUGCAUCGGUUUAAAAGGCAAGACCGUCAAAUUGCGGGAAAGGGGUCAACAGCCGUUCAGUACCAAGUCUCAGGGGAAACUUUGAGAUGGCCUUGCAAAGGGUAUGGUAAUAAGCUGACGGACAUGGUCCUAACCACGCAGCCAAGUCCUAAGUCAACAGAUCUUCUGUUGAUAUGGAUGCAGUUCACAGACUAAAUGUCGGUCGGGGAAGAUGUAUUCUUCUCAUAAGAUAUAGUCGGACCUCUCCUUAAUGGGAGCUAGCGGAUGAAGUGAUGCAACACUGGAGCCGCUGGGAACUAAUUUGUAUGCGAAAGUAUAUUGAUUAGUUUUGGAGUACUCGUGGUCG
testContext: 37 °C

- itemSequence: "UGAUAGCAAUAUUACGGAUC"
  self-splicing fitness (ln): -2.13
- itemSequence: "GACCAGCAAUAUUACGAUGA"
  self-splicing fitness (ln): -0.509
- itemSequence: "AGAUAGCAAUAUUACGCAUU"
  self-splicing fitness (ln): -1.02
- itemSequence: "UCCUAGCAAUAUUACGCUUC"
  self-splicing fitness (ln): -3.1
- itemSequence: "GGGCAGCAAUAUUACGCGGA"
  self-splicing fitness (ln): -0.758
- itemSequence: "UAUUAGCAAUAUUACGGCCG"
  self-splicing fitness (ln): 0.135
- itemSequence: "CUACAGCAAUAUUACGUUUC"
  self-splicing fitness (ln): -2.7
- itemSequence: "GCUGAGCAAUAUUACGCAUG"
  self-splicing fitness (ln): -1.92
- itemSequence: "GCCGAGCAAUAUUACGCACG"
  self-splicing fitness (ln): -1.49
- itemSequence: "UACGAGCAAUAUUACGGCUG"
  self-splicing fitness (ln): -0.0702
- itemSequence: "UUCCAGCAAUAUUACGACCU"
  self-splicing fitness (ln): -3.19
- itemSequence: "CCACAGCAAUAUUACGCUAU"
  self-splicing fitness (ln): -3.12
- itemSequence: "AGGGAGCAAUAUUACGGCAC"
  self-splicing fitness (ln): -1.77
- itemSequence: "UCAAAGCAAUAUUACGCCAG"
  self-splicing fitness (ln): -0.892
- itemSequence: "AAUUAGCAAUAUUACGUCUG"
  self-splicing fitness (ln): -0.251
- itemSequence: "UGCCAGCAAUAUUACGCUCA"
  self-splicing fitness (ln): -0.207

Just for reference, the supplement of paper PMC7877785 is where these values come from.
